Biological target: Cholinesterase (Homo sapiens, UniProt P06276)
Sequence (P06276 whole entry): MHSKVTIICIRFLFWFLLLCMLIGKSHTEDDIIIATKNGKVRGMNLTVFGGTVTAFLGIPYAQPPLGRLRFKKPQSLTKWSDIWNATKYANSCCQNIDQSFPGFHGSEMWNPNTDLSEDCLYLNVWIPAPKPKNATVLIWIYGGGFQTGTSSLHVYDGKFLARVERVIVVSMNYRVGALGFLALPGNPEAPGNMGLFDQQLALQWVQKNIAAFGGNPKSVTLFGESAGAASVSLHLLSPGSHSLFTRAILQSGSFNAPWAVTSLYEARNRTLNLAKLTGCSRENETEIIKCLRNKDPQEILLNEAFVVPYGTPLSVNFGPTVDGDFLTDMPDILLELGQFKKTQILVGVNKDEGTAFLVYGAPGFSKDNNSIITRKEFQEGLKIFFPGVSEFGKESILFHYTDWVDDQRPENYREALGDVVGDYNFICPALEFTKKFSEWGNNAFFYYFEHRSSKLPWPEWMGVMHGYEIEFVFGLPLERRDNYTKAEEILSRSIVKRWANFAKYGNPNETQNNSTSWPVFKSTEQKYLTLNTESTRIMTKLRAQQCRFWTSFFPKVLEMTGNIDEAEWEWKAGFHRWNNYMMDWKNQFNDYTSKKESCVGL
quantity_kind: pIC50
By convention, pIC50 is the negative base-10 log of a molar concentration.

Example results:
1) CCNC(=O)Oc1ccc2c(c1)[C@]1(C)CCN(C)C1N2C (some centres not stated) : 8.40
2) CCc1ccccc1NC(=O)Oc1ccc2c(c1)[C@]1(C)CC[N+](C)([O-])[C@@H]1N2C (some centres not stated) : 5.77
3) CCNC(=O)Oc1ccc2c(c1)C1(C)CCOC1O2 (configuration not stated) : 8.22
4) CC(C)c1ccc(NC(=O)Oc2ccc3c(c2)C2(C)CCOC2O3)cc1 (configuration not stated) : 7.57
5) Cc1ccccc1NC(=O)Oc1ccc2c(c1)[C@]1(C)CCOC1N2C (some centres not stated) : 5.81
6) CC(C)c1ccc(NC(=O)Oc2ccc3c(c2)[C@]2(C)CCOC2N3C)cc1 (some centres not stated) : 7.77

Q) Recorded pIC50 for CNC(=O)Oc1ccc2c(c1)[C@]1(C)CCOC1N2C (some centres not stated) with Cholinesterase (Homo sapiens, UniProt P06276), please?
A) 8.40

Q) Recorded pIC50 for CCNC(=O)Oc1ccc2c(c1)C1(C)COC(C1)O2 (configuration not stated) with Cholinesterase (Homo sapiens, UniProt P06276), please?
A) 7.62

Q) Recorded pIC50 for CCNC(=O)Oc1ccc2c(c1)[C@]1(C)CCOC1N2C (some centres not stated) with Cholinesterase (Homo sapiens, UniProt P06276), please?
A) 8.70

Q) Recorded pIC50 for CC(C)c1ccc(NC(=O)Oc2ccc3c(c2)C2(C)COC(C2)O3)cc1 (configuration not stated) with Cholinesterase (Homo sapiens, UniProt P06276), please?
A) 7.66

----------
Parameter log10 of IC50, tested on Acetylcholinesterase (Homo sapiens, UniProt P22303), listed per item.
Sequence (P22303 whole entry): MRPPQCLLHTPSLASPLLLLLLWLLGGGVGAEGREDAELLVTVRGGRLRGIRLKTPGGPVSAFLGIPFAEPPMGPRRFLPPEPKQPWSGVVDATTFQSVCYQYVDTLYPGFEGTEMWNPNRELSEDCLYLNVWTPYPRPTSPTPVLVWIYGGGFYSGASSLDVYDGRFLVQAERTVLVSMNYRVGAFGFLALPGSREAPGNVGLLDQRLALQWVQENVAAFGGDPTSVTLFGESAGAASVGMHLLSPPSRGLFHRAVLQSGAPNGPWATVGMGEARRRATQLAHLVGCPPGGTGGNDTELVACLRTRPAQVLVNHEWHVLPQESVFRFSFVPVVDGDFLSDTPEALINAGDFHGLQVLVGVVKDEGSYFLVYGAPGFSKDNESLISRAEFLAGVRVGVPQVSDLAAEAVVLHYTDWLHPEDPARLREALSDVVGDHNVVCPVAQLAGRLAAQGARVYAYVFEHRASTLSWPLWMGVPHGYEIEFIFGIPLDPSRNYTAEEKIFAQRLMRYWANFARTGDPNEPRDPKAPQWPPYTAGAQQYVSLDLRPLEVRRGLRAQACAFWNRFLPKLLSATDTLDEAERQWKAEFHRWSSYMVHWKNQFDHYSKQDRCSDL
Hello, just confirming the data are log10 of IC50 with units of nM.

1. CCNC(=O)Oc1ccc2c(c1)[C@]1(C)CCOC1N2C (stereo partly specified) : 1.91
2. CCc1ccccc1NC(=O)Oc1ccc2c(c1)[C@]1(C)CC[N+](C)([O-])[C@@H]1N2C (stereo partly specified) : 2.10
3. CC(C)c1ccc(NC(=O)Oc2ccc3c(c2)[C@]2(C)CCOC2N3C)cc1 (stereo partly specified) : 3.59

Q) Which log10 of IC50 value belongs to CNC(=O)Oc1ccc2c(c1)[C@]1(C)CCOC1N2C (stereo partly specified) ?
A) 1.43

Q) Which log10 of IC50 value belongs to CC(C)c1ccc(NC(=O)Oc2ccc3c(c2)C2(C)COC(C2)O3)cc1 (stereo unspecified) ?
A) 3.63

Q) Which log10 of IC50 value belongs to CCNC(=O)Oc1ccc2c(c1)C1(C)CCOC1O2 (stereo unspecified) ?
A) 2.56

----------
Target: Acetylcholinesterase (Homo sapiens, UniProt P22303)
quantity_kind: IC50
Respond with the figure and its unit, in that order.

Q) Which IC50 value belongs to CCNC(=O)Oc1ccc2c(c1)[C@]1(C)CCN(C)C1N2C (stereo partly drawn) ?
A) 94 nM

Q) Which IC50 value belongs to Cc1ccccc1NC(=O)Oc1ccc2c(c1)C1(C)COC(C1)O2 (stereo not drawn) ?
A) 56 nM

Q) Which IC50 value belongs to Cc1ccccc1NC(=O)Oc1ccc2c(c1)[C@]1(C)CCOC1N2C (stereo partly drawn) ?
A) 13 nM
